target: MS2 coat protein (MCP) (Enterobacteria phage MS2, UniProt P03612 P03612:2-130); test: EMSA; sub-nanomolar; exact value only in figure; about 10-fold tighter than wt (p109); 10 mM Tris, 100 mM NaCl, 0.1 mM EDTA, tRNA, heparin, room temperature, 3 h; conditions: tags: MBP-TEV N-terminal, C-terminal 6xHis (plasmid pET336, E. coli Rosetta2); chain copies: 2 (inferred); label: 5' fluorescein; hairpin
Sequence (P03612 2-130, one chain of several): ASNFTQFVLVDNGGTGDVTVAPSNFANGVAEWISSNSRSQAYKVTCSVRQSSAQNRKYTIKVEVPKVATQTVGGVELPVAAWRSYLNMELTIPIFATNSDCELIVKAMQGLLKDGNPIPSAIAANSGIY
reported-metric: Kd

input: Can you share its Kd? I mean this binder: ACAUGAGGAUCACCCAUGU (ssRNA) [MS2 C-variant stem loop]
output: < 1 nM
